Test system: HCV replicon 1A
Test: Cell-based HCV replicon assay (Replicon Assay A), replicon 1A
Parameters: species or system Hepatitis C virus (HCV)
Details: Hepatitis C virus, 72 h, replicon RNA by real time PCR, cells harvested on day 3
Readout Kind: EC50 (nM)

| Compound | Readout Kind | Recorded Number |
| --- | --- | --- |
| COC(=O)N[C@H](C(=O)N1CCC[C@H]1c1ncc(-c2cc(F)c3c(c2)OC(c2cc(C(C)C)no2)n2c-3cc3cc(-c4cnc([C@@H]5CCCN5C(=O)[C@@H](NC(=O)OC)C(C)C)[nH]4)ccc32)[nH]1)C(C)C (single isomer, unassigned) [Compound 25] | EC50 | 0.0012 |
| COC(=O)N[C@H](C(=O)N1CCC[C@H]1c1ncc(-c2ccc3c(c2)OC(c2ccc(C)o2)n2c-3cc3cc(-c4cnc([C@@H]5C[C@@H](F)CN5C(=O)[C@@H](NC(=O)OC)C(C)C)[nH]4)ccc32)[nH]1)C(C)C (some centres unmarked) | EC50 | 0.0281 |

----------
System: HCV replicon 1A Y93H
Assay: Cell-based HCV replicon assay (Replicon Assay A), replicon 1AY93H
Set-up: species or system Hepatitis C virus (HCV)
Details: read-out: Replicon EC50 (nM) 1A Y93H, replicon 1A Y93H, replicon RNA by real time PCR, cells harvested on day 3
Experimental: To measure cell-based anti-HCV activity of compounds of the present invention, two complimentary assays were employed using various replicons. […] The replicon RNA level was measured using real time PCR (TaqMan® EZ RT-PCR, Applied Biosystems 403028) with the following primers and probes: […] The amount of HCV replicon RNA per cell is quantified using a linear regression curve for a known nanogram (ng) amount of HCV replicon total RNA. […]
Quick list: log10(EC50) per entry.
Readout Kind: log10(EC50) (log10 of the value in nM)

| Compound | log10(EC50) |
| --- | --- |
| COC(=O)N[C@H](C(=O)N1CCC[C@H]1c1ncc(-c2cc(F)c3c(c2)OC(c2nc(C(C)C)ns2)n2c-3cc3cc(-c4cnc([C@@H]5CCCN5C(=O)[C@@H](NC(=O)OC)C(C)C)[nH]4)ccc32)[nH]1)C(C)C (single isomer, unassigned) [Compound 32] | -0.73 |
| COC(=O)N[C@H](C(=O)N1CCC[C@H]1c1ncc(-c2cc(F)c3c(c2)OC(c2nc(C)co2)n2c-3cc3cc(-c4cnc([C@@H]5CCCN5C(=O)[C@@H](NC(=O)OC)C(C)C)[nH]4)ccc32)[nH]1)C(C)C (single isomer, unassigned) [Compound 24] | -0.58 |
| COC(=O)N[C@H](C(=O)N1CCC[C@@H]1c1ncc(-c2ccc3c(c2)cc2n3C(c3cnco3)Oc3cc(-c4cnc([C@H]5CCCN5C(=O)[C@H](NC(=O)OC)C(C)C)[nH]4)cc(F)c3-2)[nH]1)C(C)C (single isomer, unassigned) [Compound 18] | 1.26 |
| COC(=O)N[C@H](C(=O)N1CCC[C@H]1c1ncc(-c2cc(F)c3c(c2)OC(c2cc4ccccn4n2)n2c-3cc3cc(-c4cnc([C@@H]5CCCN5C(=O)[C@@H](NC(=O)OC)C(C)C)[nH]4)ccc32)[nH]1)C(C)C (single isomer, unassigned) [Compound 40] | -0.27 |
| COC(=O)N[C@H](C(=O)N1CCC[C@H]1c1ncc(-c2cc(F)c3c(c2)O[C@@H](c2cc(C(C)C)no2)n2c-3cc3cc(-c4cnc([C@@H]5CCCN5C(=O)[C@@H](NC(=O)OC)C(C)C)[nH]4)ccc32)[nH]1)C(C)C (single isomer, unassigned) [Compound 10] | 0.16 |
| COC(=O)N[C@H](C(=O)N1CCC[C@H]1c1ncc(-c2cc(F)c3c(c2)OC(c2cc4ccccn4n2)n2c-3cc3cc(-c4cnc([C@@H]5CCCN5C(=O)[C@@H](NC(=O)OC)C(C)C)[nH]4)ccc32)[nH]1)C(C)C (single isomer, unassigned) [Compound 41] | -0.50 |
| CCc1cc([C@@H]2Oc3cc(-c4cnc([C@@H]5CCCN5C(=O)[C@@H](NC(=O)OC)C(C)C)[nH]4)cc(F)c3-c3cc4cc(-c5cnc([C@@H]6CCCN6C(=O)[C@@H](NC(=O)OC)C(C)C)[nH]5)ccc4n32)on1 (single isomer, unassigned) [Compound 8] | -0.22 |

----------
Tested on: HCV replicon 1A
Test: Cell-based HCV replicon assay (Replicon Assay A), replicon 1A
Parameters: species or system Hepatitis C virus (HCV)
Conditions: Hepatitis C virus, 72 h, replicon RNA by real time PCR, cells harvested on day 3
Quick list: EC50 per entry.

| Molecule | Experimental System | EC50 |
| --- | --- | --- |
| COC(=O)N[C@H](C(=O)N1CCC[C@H]1c1ncc(-c2cc(F)c3c(c2)OC(c2coc(C4CC4)n2)n2c-3cc3cc(-c4cnc([C@@H]5CCCN5C(=O)[C@@H](NC(=O)OC)C(C)C)[nH]4)ccc32)[nH]1)C(C)C (single isomer, unassigned) [Compound 35] | HCV replicon 1A | 0.0034 nM |
| CCc1cnc(C2Oc3cc(-c4cnc([C@@H]5CCCN5C(=O)[C@@H](NC(=O)OC)C(C)C)[nH]4)cc(F)c3-c3cc4cc(-c5cnc([C@@H]6CCCN6C(=O)[C@@H](NC(=O)OC)C(C)C)[nH]5)ccc4n32)o1 (single isomer, unassigned) [Compound 27] | HCV replicon 1A | 0.0027 nM |
| COC(=O)N[C@H](C(=O)N1CCC[C@H]1c1ncc(-c2cc(F)c3c(c2)OC(c2csnn2)n2c-3cc3cc(-c4cnc([C@@H]5CCCN5C(=O)[C@@H](NC(=O)OC)C(C)C)[nH]4)ccc32)[nH]1)C(C)C (mixture of isomers) [Compound 37] | HCV replicon 1A | 0.004 nM |
| COC(=O)N[C@H](C(=O)N1CCC[C@H]1c1ncc(-c2cc(F)c3c(c2)OC(c2cnc4n2CCC4)n2c-3cc3cc(-c4cnc([C@@H]5CCCN5C(=O)[C@@H](NC(=O)OC)C(C)C)[nH]4)ccc32)[nH]1)C(C)C (some centres unmarked) [Compound 13] | HCV replicon 1A | 0.147 nM |
| CCc1cc([C@@H]2Oc3cc(-c4cnc([C@@H]5CCCN5C(=O)[C@@H](NC(=O)OC)C(C)C)[nH]4)cc(F)c3-c3cc4cc(-c5cnc([C@@H]6CCCN6C(=O)[C@@H](NC(=O)OC)C(C)C)[nH]5)ccc4n32)on1 (single isomer, unassigned) [Compound 8] | HCV replicon 1A | 0.004 nM |

----------
Quick list: EC50 per entry.
Test system: HCV replicon 1A
Assay: Cell-based HCV replicon assay (Replicon Assay A), replicon 1A
Design: species or system Hepatitis C virus (HCV)
Conditions: replicon RNA by real time PCR, cells harvested on day 3
Readout Kind: EC50 (nM)

| Molecule | Readout Kind | Recorded Number |
| --- | --- | --- |
| COC(=O)N[C@H](C(=O)N1CCC[C@H]1c1ncc(-c2cc(F)c3c(c2)OC(c2cc4ccccn4n2)n2c-3cc3cc(-c4cnc([C@@H]5CCCN5C(=O)[C@@H](NC(=O)OC)C(C)C)[nH]4)ccc32)[nH]1)C(C)C (single isomer, unassigned) [Compound 41] | EC50 | 0.0019 |
| COC(=O)N[C@H](C(=O)N1CCC[C@H]1c1ncc(-c2cc(F)c3c(c2)OC(c2nc4ccccc4o2)n2c-3cc3cc(-c4cnc([C@@H]5CCCN5C(=O)[C@@H](NC(=O)OC)C(C)C)[nH]4)ccc32)[nH]1)C(C)C (single isomer, unassigned) | EC50 | 0.0023 |
| COC(=O)N[C@H](C(=O)N1CCC[C@H]1c1ncc(-c2cc(F)c3c(c2)O[C@@H](c2cc(C(C)C)no2)n2c-3cc3cc(-c4cnc([C@@H]5CCCN5C(=O)[C@@H](NC(=O)OC)C(C)C)[nH]4)ccc32)[nH]1)C(C)C (single isomer, unassigned) | EC50 | 0.0027 |
| CCc1nnc(C2Oc3cc(-c4cnc([C@@H]5CCCN5C(=O)[C@@H](NC(=O)OC)C(C)C)[nH]4)cc(F)c3-c3cc4cc(-c5cnc([C@@H]6CCCN6C(=O)C(NC(=O)OC)C(C)C)[nH]5)ccc4n32)s1 (single isomer, unassigned) [Compound 34] | EC50 | 0.0084 |
